Biological target: T1, TFAM (UniProt Q00059 43-246)
T1 sequence: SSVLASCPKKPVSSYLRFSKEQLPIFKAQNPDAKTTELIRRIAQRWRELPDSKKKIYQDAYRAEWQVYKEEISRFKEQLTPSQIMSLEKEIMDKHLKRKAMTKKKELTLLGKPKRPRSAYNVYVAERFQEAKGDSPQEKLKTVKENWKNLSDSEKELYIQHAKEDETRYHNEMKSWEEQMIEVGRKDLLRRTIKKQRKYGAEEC
Test: fluorescence polarization; 150 mM NaCl; EMSA: 10 mM HEPES pH 8.0, 500 mM NaCl, 2 mM DTT, 130 ug/ml BSA, 5% glycerol, 100 nM DNA, 30 min on ice then 10 min RT; FP: 10 mM HEPES pH 8.0, 150-400 mM NaCl
Settings: protein: recombinant; tags: His-MBP N-terminal, removed by TEV; label: 5'-Cy3 on strand 1 (EMSA); 6-FAM (FP); blunt
Exercise: state measured pKd for each of the binders provided.
Just so you know, pKd here is -log10 of the concentration in molar units; reply with that number alone.

Ask: pKd lookup needed for DNAGG (dsDNA) DNA 1: AAAAAGAACCATTTGGATACATAGGTAT DNA 2: ATACCTATGTATCCAAATGGTTCTTTTT , thanks.
Reply: 7.87

Ask: Similarly, DNAAA (dsDNA) DNA 1: AAAAAGAATCATTTGGATATATAGGTAT DNA 2: ATACCTATATATCCAAATGATTCTTTTT ?
Reply: 7.92
